- protocol-details: Phase 1 Stage 1 clinical pharmacokinetics of SC ZA co-administered with rHuPH20
- Assay type: in vivo, human
- experimental-context: human, serum, sc, […], AUC (0-24 h), Subj 18; ZA […] SC; inf […]; PH20 23304 U

- compound: "O=P(O)(O)C(O)(Cn1ccnc1)P(=O)(O)O [ZA]"
  AUC(0-t) (ng·h/mL): 68.5

----------
- protocol-details: Phase 1 Stage 1 clinical pharmacokinetics of SC ZA co-administered with rHuPH20
- Assay type: in vivo, human
- experimental-context: human, serum, sc, serum; ZA 0.5 mg SC infusion + 24000 Units rHuPH20; 2 h post infusion; individual subjects; read-out: Zoledronic Acid Concentration
experimental-readout: concentration at 2 h (ng/mL)

- line-notation: "O=P(O)(O)C(O)(Cn1ccnc1)P(=O)(O)O"
  experimental-readout: "concentration at 2 h"
  reported-result: 11.1
